System: NCI-H838
measurement_description: relative viability (nuclei count vs DMSO), 5 days (fraction); higher = more cells survive
condition_parameters: first compound 0.01 µM

{"columns": ["molecule", "relative viability"],
 "data": [
  ["NC(=O)Nc1cc(-c2cccc(F)c2)sc1C(=O)N[C@H]1CCCNC1 [AZD7762] + CCNC(=O)c1noc(-c2cc(C(C)C)c(O)cc2O)c1-c1ccc(CN2CCOCC2)cc1 [Luminespib] (partner 0.01 µM)", 0.277],
  ["NC(=O)Nc1cc(-c2cccc(F)c2)sc1C(=O)N[C@H]1CCCNC1 [AZD7762] + CC1(C)CCC(c2ccc(Cl)cc2)=C(CN2CCN(c3ccc(C(=O)NS(=O)(=O)c4ccc(N[C@H](CCN5CCOCC5)CSc5ccccc5)c(S(=O)(=O)C(F)(F)F)c4)cc3)CC2)C1 [Navitoclax] (partner 0.5 µM)", 1.19],
  ["NC(=O)Nc1cc(-c2cccc(F)c2)sc1C(=O)N[C@H]1CCCNC1 [AZD7762] + N=C(N)NC(=N)NCCc1ccccc1 [Phenformin] (partner 250 µM)", 0.538]
]}

* * *

Recorded relative viability values for a group of molecules are listed next.
Test system: NCI-H2170
measurement_description: relative viability (nuclei count vs DMSO), 5 days (fraction); higher = more cells survive
condition_parameters: first compound 0.1581 µM

{"columns": ["molecule", "relative viability"],
 "data": [
  ["CC1(C)CCC(c2ccc(Cl)cc2)=C(CN2CCN(c3ccc(C(=O)NS(=O)(=O)c4ccc(N[C@H](CCN5CCOCC5)CSc5ccccc5)c(S(=O)(=O)C(F)(F)F)c4)cc3)CC2)C1 [Navitoclax] + CC(=O)Nc1cccc(-n2c(=O)n(C3CC3)c(=O)c3c(Nc4ccc(I)cc4F)n(C)c(=O)c(C)c32)c1 [Trametinib] (partner 0.02 µM)", 0.887],
  ["CC1(C)CCC(c2ccc(Cl)cc2)=C(CN2CCN(c3ccc(C(=O)NS(=O)(=O)c4ccc(N[C@H](CCN5CCOCC5)CSc5ccccc5)c(S(=O)(=O)C(F)(F)F)c4)cc3)CC2)C1 [Navitoclax] + Cc1nc(NC(=O)N2CCC[C@H]2C(N)=O)sc1-c1ccnc(C(C)(C)C(F)(F)F)c1 [Alpelisib] (partner 2 µM)", 0.8],
  ["CC1(C)CCC(c2ccc(Cl)cc2)=C(CN2CCN(c3ccc(C(=O)NS(=O)(=O)c4ccc(N[C@H](CCN5CCOCC5)CSc5ccccc5)c(S(=O)(=O)C(F)(F)F)c4)cc3)CC2)C1 [Navitoclax] + COc1cccc2cc(-c3nc([C@H]4CC[C@H](C(=O)O)CC4)n4ncnc(N)c34)[nH]c12 [OSI-027] (partner 0.5 µM)", 0.647],
  ["CC1(C)CCC(c2ccc(Cl)cc2)=C(CN2CCN(c3ccc(C(=O)NS(=O)(=O)c4ccc(N[C@H](CCN5CCOCC5)CSc5ccccc5)c(S(=O)(=O)C(F)(F)F)c4)cc3)CC2)C1 [Navitoclax] + CCNC(=O)c1noc(-c2cc(C(C)C)c(O)cc2O)c1-c1ccc(CN2CCOCC2)cc1 [Luminespib] (partner 0.01 µM)", 0.67]
]}

* * *

Tested on: HCC-44
measurement_description: relative viability (nuclei count vs DMSO), 5 days (fraction); higher = more cells survive
condition_parameters: first compound 0.01 µM
Criterion: relative viability strictly less than 1. Met: true. Not met: false.

{"columns": ["molecule", "qualitative_label"],
 "data": [
  ["NC(=O)Nc1cc(-c2cccc(F)c2)sc1C(=O)N[C@H]1CCCNC1 [AZD7762] + N=C(N)NC(=N)NCCc1ccccc1 [Phenformin] (partner 250 µM)", "true"],
  ["NC(=O)Nc1cc(-c2cccc(F)c2)sc1C(=O)N[C@H]1CCCNC1 [AZD7762] + Cc1nc(NC(=O)N2CCC[C@H]2C(N)=O)sc1-c1ccnc(C(C)(C)C(F)(F)F)c1 [Alpelisib] (partner 2 µM)", "true"],
  ["NC(=O)Nc1cc(-c2cccc(F)c2)sc1C(=O)N[C@H]1CCCNC1 [AZD7762] + CC1(C)CCC(c2ccc(Cl)cc2)=C(CN2CCN(c3ccc(C(=O)NS(=O)(=O)c4ccc(N[C@H](CCN5CCOCC5)CSc5ccccc5)c(S(=O)(=O)C(F)(F)F)c4)cc3)CC2)C1 [Navitoclax] (partner 0.5 µM)", "false"],
  ["NC(=O)Nc1cc(-c2cccc(F)c2)sc1C(=O)N[C@H]1CCCNC1 [AZD7762] + Cc1cc(Nc2cc(N3CCN(C)CC3)nc(Sc3ccc(NC(=O)C4CC4)cc3)n2)n[nH]1 [Tozasertib] (partner 0.1 µM)", "false"],
  ["NC(=O)Nc1cc(-c2cccc(F)c2)sc1C(=O)N[C@H]1CCCNC1 [AZD7762] + CC(=O)Nc1cccc(-n2c(=O)n(C3CC3)c(=O)c3c(Nc4ccc(I)cc4F)n(C)c(=O)c(C)c32)c1 [Trametinib] (partner 0.02 µM)", "false"]
]}
